test system: SNB-75 CNS; experiment: NCI tumour cell line growth inhibition, 48 h
Value Type: TGI

# TGI lookup, item CC(=O)Nc1cc2c3c(c1)CCCN3CCC2
> 100 µM

# TGI lookup, item COc1cc2nc(SCC(=O)Nc3cc(OC)c(OC)c(OC)c3)n(Cc3ccccc3)c(=O)c2cc1OC
3.38 µM

# TGI lookup, item O=C1CCC2CC(C(=O)c3ccccc3)CCC2CN1 (centres undefined) (tested in a mixture with another compound)
> 100 µM

# TGI lookup, item O=C1Nc2c(C(F)(F)F)cccc2[C@@]1(c1ccc(O)cc1)c1ccc(OC(F)(F)F)cc1
< 0.0147 µM

# TGI lookup, item COc1cccc(/C=N/[N-]C(N)=O)c1[O-].[Ni+2].[OH3+].c1ccc(-c2ccccn2)nc1
> 100 µM

# TGI lookup, item O=C(Nc1ccccc1)N(C1=NCC(CI)S1)c1ccc(F)cc1F (centres undefined)
> 100 µM

# TGI lookup, item CS(=O)(=O)Nc1ccc(-c2cc(-c3ccccc3)cc(C(N)=O)c2N)cc1
> 25 µM

# TGI lookup, item O=C(c1ccccc1)c1ccc(Oc2ccc([N+](=O)[O-])cc2[N+](=O)[O-])cc1
26.7 µM

# TGI lookup, item COc1ccc(OCc2ccc3nc(-c4ccccc4)c(Cl)nc3c2)cc1
> 100 µM

----------
Please respond with reported TGI for every item in the list.
test system: CAKI-1 renal; test: NCI tumour cell line growth inhibition, 48 h

# TGI lookup, item CC1=CC[C@@]2(CO)[C@@H]([C@@H]1C)[C@H]1CC[C@@H]3[C@@]4(C)CC[C@H](O)C(C)(C)[C@@H]4CC[C@@]3(C)[C@]1(C)C[C@@H]2O
> 100 µM

# TGI lookup, item O=C1CCC2CC(C(=O)c3ccccc3)CCC2CN1 (centres undefined) (tested in a mixture with another compound)
> 100 µM

# TGI lookup, item CCc1n[nH]c(=O)n1/N=C/c1ccc(C)cc1
> 100 µM

# TGI lookup, item CCOC(=O)C(C)NC(=O)C(C)NC(=O)C(C)NC(=O)C(C)NC(=O)C(C)NC(=O)OCc1ccccc1 (centres undefined)
> 100 µM

# TGI lookup, item NC(=O)c1ccc(NN=O)nc1
> 100 µM

# TGI lookup, item O=C(CN(/C=C/C(=O)C(F)(F)F)c1ccc(Cl)cc1)c1ccccc1
22.8 µM

# TGI lookup, item CCOC(=O)c1cnc2n(c1=N)[C@H]1CCCC[C@@H]1N2
> 100 µM

# TGI lookup, item O=C1Nc2c(C(F)(F)F)cccc2[C@@]1(c1ccc(O)cc1)c1ccc(OC(F)(F)F)cc1
0.971 µM

# TGI lookup, item NC(=O)CCC(N=C(N)c1csc(C2OC(CO)C(O)C2O)n1)C(=O)O (centres undefined)
> 100 µM

----------
system: UACC-62 melanoma; assay: NCI tumour cell line growth inhibition, 48 h
Please respond with reported TGI for every item in the list.
Number in µM, nothing else.

# TGI lookup, item C[C@]12CC[C@H](O)C[C@H]1CC[C@@H]1[C@@H]2CC[C@]2(C)[C@@H](C3=CC(=O)OC3)[C@@H](O)C[C@]12O
6.82

# TGI lookup, item O=C(/C(=C\c1ccc([N+](=O)[O-])cc1)S(=O)Cc1ccc(F)cc1)c1ccc(F)cc1 (centres undefined)
3.25

# TGI lookup, item COC(=O)[C@]12CC[C@@H](C)[C@H](C)[C@@H]1C1=CC[C@@H]3[C@@]4(C)C(C=O)=C[C@@](C)(COC(C)=O)C4=CC[C@@]3(C)[C@]1(C)CC2
18.1

# TGI lookup, item Nc1nc(OCc2cc(Br)cs2)c2[nH]cnc2n1
59.7

# TGI lookup, item O=c1oc2ccccc2c(O)c1/C=N/C(=S)NCCc1ccccc1
99.4

# TGI lookup, item O=C1c2ccccc2C(=O)N1CCN(CCN1C(=O)c2ccccc2C1=O)Cn1cccn1
63.2

# TGI lookup, item Cc1ccc2ncnc(N(CC(C)C)CC(C)C)c2c1
32.1

# TGI lookup, item CCCCCCOc1ccc(C(=O)NO)cc1
20.6

----------
test system: SNB-75 CNS; test: NCI tumour cell line growth inhibition, 48 h
Please respond with reported TGI for every item in the list.

# TGI lookup, item COC(=O)C(CC(C)C)NC(=O)NC12CC3CC(CC(F)(C3)C1)C2 (centres undefined)
> 100 µM

# TGI lookup, item NS(=O)(=O)c1ccc(NC2=CC(=O)C(=O)c3ccccc32)cc1
> 100 µM

# TGI lookup, item CC1COc2c(N3CCN(C)CC3)c(F)cc3c(=O)c(C(=O)O)cn1c23 (centres undefined)
> 100 µM

# TGI lookup, item COC(=O)C(=O)C(C(=O)C(=O)Nc1nc2ccc(C)cc2s1)c1nc2ccc([N+](=O)[O-])cc2[nH]c1=O (centres undefined)
> 100 µM

# TGI lookup, item CCN(CC)CCNC(=O)c1cc2cc(NC(=O)c3cc4cc(NC(=O)c5cc6cc(N)ccc6[nH]5)ccc4[nH]3)ccc2[nH]1
> 100 µM

# TGI lookup, item CO/N=C(\C(=O)N(C)n1cnnc1)c1csc(NC(c2ccccc2)(c2ccccc2)c2ccccc2)n1
> 10 µM

# TGI lookup, item COc1ccc2cc(C(=O)O)ccc2c1OC
> 100 µM

# TGI lookup, item Cc1cc(S(=O)(=O)Nc2cc(N)[nH]n2)c(SCc2nc(N)nc(N(C)C)n2)cc1Cl
> 10 µM

# TGI lookup, item COc1cc(C2C(C#N)=C(N)OC3=C2CCS(=O)(=O)c2ccc(C)cc23)cc(OC)c1OC (centres undefined)
> 100 µM

----------
Please respond with reported TGI for every item in the list.
system: TK-10 renal; assay: NCI tumour cell line growth inhibition, 48 h

# TGI lookup, item C[C@]12CC[C@H](O)C[C@H]1CC[C@@H]1[C@@H]2CC[C@]2(C)[C@@H](C3=CC(=O)OC3)[C@@H](O)C[C@]12O
1.99 µM

# TGI lookup, item C=C(C)[C@H]1C=C[C@@H](OC(=O)c2cccnc2)[C@@]23CO[C@@](C)([C@H](OC(=O)c4cccnc4)[C@@]4(OC(C)=O)C[C@H](C)[C@H](OCCC)[C@@H]4[C@H]2OC(C)=O)[C@H]13
> 15 µM

# TGI lookup, item CCCCCCCCCCCCCCCCOCC(Cl)COP(=O)(O)OP(=O)(O)OCC1OC(n2cc(C)c(=O)[nH]c2=O)CC1O (stereo not drawn)
> 100 µM

# TGI lookup, item COc1ccc(C(=O)c2cc(OC)c(OC)c(OC)c2)cc1/C=C/C(=O)c1ccc(OC)c(OC)c1
> 100 µM

# TGI lookup, item Cc1ccc(-c2cc3c(SCC(=O)Nc4cc(C(F)(F)F)ccc4Cl)nccn3n2)cc1
> 100 µM

# TGI lookup, item CC(=O)OC1CCCn2c1nc1c2C(=O)C(C)=C(N2CC2)C1=O (stereo not drawn)
7.28 µM

# TGI lookup, item CN(C)CCNC(=O)C(C)(C)Oc1ccc(C(=O)c2ccc(Cl)cc2)cc1Cl
23.7 µM

# TGI lookup, item Cc1cc(S(=O)(=O)Nc2cc(N)[nH]n2)c(SCc2nc(N)nc(N(C)C)n2)cc1Cl
> 10 µM

----------
test system: HT29 colon; assay: NCI tumour cell line growth inhibition, 48 h
Value Type: TGI

# TGI lookup, item COc1ccc2cc(C(=O)O)ccc2c1OC
> 100 µM

# TGI lookup, item CC(=O)CSc1c(-c2ccccc2)c(=O)n(-c2ccccc2)c(=S)n1-c1ccccc1
> 100 µM

# TGI lookup, item O=[N+]([O-])c1ccccc1N/N=C\c1c[nH]c2ccccc12
> 61.7 µM

# TGI lookup, item NS(=O)(=O)c1ccc(NC2=CC(=O)C(=O)c3ccccc32)cc1
> 100 µM

# TGI lookup, item COC(=O)[C@]12CC[C@@H](C)[C@H](C)[C@@H]1C1=CC[C@@H]3[C@@]4(C)C(C=O)=C[C@@](C)(COC(C)=O)C4=CC[C@@]3(C)[C@]1(C)CC2
11 µM

# TGI lookup, item O=C(O)c1cc(/C=C/c2cc(O)ccc2O)ccc1O
> 10 µM

# TGI lookup, item CN(C)CCN=C1Nc2ccccc2C(=S)N2CSCC12 (stereo not given)
> 100 µM

# TGI lookup, item CC(=O)Nc1cc(N(CCOS(C)(=O)=O)CCOS(C)(=O)=O)ccc1N=O
> 100 µM

# TGI lookup, item CC(=O)c1cc(C(=O)c2ccc3c(c2)Sc2ccccc2N3)c2c(C)cc(C)cn12
0.962 µM

# TGI lookup, item COc1cc2cccc(N)c2cc1OC
> 100 µM

----------
Please respond with reported TGI for every item in the list.
system: MOLT-4 leukemia; test: NCI tumour cell line growth inhibition, 48 h
Number in µM, nothing else.

Lab request: please report TGI under test system MOLT-4 leukemia for CCOC(=O)c1c(C)n2c(=O)cc(C)c3c(O)c(O)cc1c32
15.2

Lab request: please report TGI under test system MOLT-4 leukemia for NCCN1C(=O)CN=C(c2ccc(Cl)cc2)c2cc(Cl)ccc21
73.8

Lab request: please report TGI under test system MOLT-4 leukemia for NC1CCC(Nc2nc(NCc3ccc(-c4cccs4)nc3)c3ncn(C4CCCC4)c3n2)CC1 (configuration not stated)
0.502
